This collection of values is drawn from PubChem BioAssay.

# System: Neuregulin-1 EGF-like domain
# testMethodNotes: small molecules binding NRG1 EGF domain – biochemical, small-molecule microarray, 635 nm fluorescence, primary screen (AID 1081);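 also: binding of the protein to compounds printed on small-molecule microarray slides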
# conditionInfo: higher = more signal
// reported composite z-score for each item listed

As a guide, the following entries are already answered.
C=CCC(OC(C)=O)[C@@H]1[C@@H](N(Cc2cc3ccccc3o2)C(=O)Cc2ccc(F)cc2)c2cc(OCCCO)ccc2N1C(=O)Cc1ccc2ccccc2c1 (some centres not stated): 0.112
[N-]=[N+]=Nc1ccccc1[C@@H]1OC(c2ccc(OCCCO)cc2)=N[C@]1(Cc1ccccc1)C(=O)N1CCCCC1: 1.28
C=CCNC(=O)[C@@H]1[C@H]2C(=O)O[C@H](c3ccccc3)[C@H](c3ccccc3)N2[C@H](c2ccccc2OCCO)[C@@]12C(=O)N(C(=O)OCCOC)c1ccc(C#CC3(O)CCCCCC3)cc12: 1.14
COc1cc(NN2C(C(O)c3ccc(N(C)C)cc3)C=CC3C(=O)N(c4ccccc4)C(=O)C32)cc(OC)c1OC (configuration not stated): 1.13

Task: Quick check: composite z-score on Neuregulin-1 EGF-like domain, item CC1=C2[C@@H](CCc3ccccc3)OB(O)C[C@@H]2[C@@H]2C(=O)N(C)C(=O)[C@@H]2C1 ?
Result: -0.0884

Task: Which composite z-score is reported with Neuregulin-1 EGF-like domain for this entry: CCCC=C(CCC)[C@@H](NP(=O)(c1ccccc1)c1ccccc1)c1ccc(-c2ccccc2)cc1 ?
Result: 1.14

Task: Param readout= composite z-score; system= Neuregulin-1 EGF-like domain; entry= CC(C)[Si](C#C[Si](C(C)C)(C(C)C)C(C)C)(O[C@H](c1ccccc1)c1cn(Cc2ccccc2)nn1)C(C)C ; returns value.
Result: 0.928
